TARGET OF ASSAY: Dickkopf-related protein 1 (Homo sapiens) (UniProt O94907)
Sequence (O94907 whole entry, looked up): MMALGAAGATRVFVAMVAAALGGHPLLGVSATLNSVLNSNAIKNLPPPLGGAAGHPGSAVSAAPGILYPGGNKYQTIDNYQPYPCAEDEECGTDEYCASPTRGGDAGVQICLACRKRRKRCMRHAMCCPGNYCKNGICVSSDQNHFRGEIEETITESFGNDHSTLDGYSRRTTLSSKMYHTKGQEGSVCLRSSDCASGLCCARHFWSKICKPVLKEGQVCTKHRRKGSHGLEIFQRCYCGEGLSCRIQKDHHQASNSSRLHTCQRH
PROTOCOL DETAILS: DKK1 binders on small-molecule microarrays, primary screen, biochemical, small-molecule microarray, 635 nm fluorescence scan (AID 1106);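 note: score merges emission near 667 nm with signal to noise over three replicate slides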
MEASUREMENT CONDITIONS: DKK1 binding, higher = more signal
Classify on composite z-score using interval 1 (below -0.4), interval 2 (-0.4 to below 0.5), interval 3 (0.5 or more)

[[record]]
compound = "COc1ccc(C(O)C2C=CC3C(=O)N(C)C(=O)C3N2N2CCCCC2)cc1OCc1ccccc1 (centres undefined)"
target_of_assay = "Dickkopf-related protein 1 (Homo sapiens) (UniProt O94907)"
category = "interval 1"

[[record]]
compound = "COc1ccc([Si](C)(C)[C@H]2[C@H](CC(=O)N3Cc4ccccc4C[C@H]3CO)O[C@@]3(C(=O)N(Cc4cccc(N5CCOC5=O)c4)c4ccccc43)[C@@H]2C)cc1"
target_of_assay = "Dickkopf-related protein 1 (Homo sapiens) (UniProt O94907)"
category = "interval 3"

[[record]]
compound = "[N-]=[N+]=NCc1ccccc1C[C@@]1(C(=O)N2CCOCC2)N=C(c2ccc(OCCCO)cc2)O[C@@H]1c1ccccc1N=[N+]=[N-]"
target_of_assay = "Dickkopf-related protein 1 (Homo sapiens) (UniProt O94907)"
category = "interval 1"

[[record]]
compound = "CC(C)(C)OC(=O)CC[C@@]1(C(=O)NCc2ccccc2)N=C(c2ccc(OCCCO)cc2)O[C@@H]1c1ccccc1"
target_of_assay = "Dickkopf-related protein 1 (Homo sapiens) (UniProt O94907)"
category = "interval 2"

[[record]]
compound = "C=CC[C@]1(C(=O)N2CCCCC2)N=C(c2ccc(OCCCO)cc2)O[C@H]1c1ccccc1N=[N+]=[N-]"
target_of_assay = "Dickkopf-related protein 1 (Homo sapiens) (UniProt O94907)"
category = "interval 2"

[[record]]
compound = "COc1ccc(-c2ccccc2[C@@H]2N[C@H](C(=O)O)CC[C@H]2C)cc1"
target_of_assay = "Dickkopf-related protein 1 (Homo sapiens) (UniProt O94907)"
category = "interval 3"

[[record]]
compound = "COC(=O)Cn1c(C(=O)N2CCCC2)cc2c1C[C@H]1CN(C(=O)c3ccccc3)[C@@](Cc3ccc(OC)cc3)(C(=O)OC)[C@@H]21"
target_of_assay = "Dickkopf-related protein 1 (Homo sapiens) (UniProt O94907)"
category = "interval 1"

[[record]]
compound = "CC(C)[Si]1(C(C)C)O[C@@H](c2ccccc2)c2cc(C3CC3)nc(-c3ccc(Oc4ccccc4)cc3)c21"
target_of_assay = "Dickkopf-related protein 1 (Homo sapiens) (UniProt O94907)"
category = "interval 2"

[[record]]
compound = "CC(C)N1CC=CC23O[C@@H]4/C=C\\CCCOC(=O)C4[C@H]2C(=O)N(CCCCCO)[C@@H]3C1=O (some centres undefined)"
target_of_assay = "Dickkopf-related protein 1 (Homo sapiens) (UniProt O94907)"
category = "interval 1"

[[record]]
compound = "C=CCNC(=O)[C@H]1[C@@H]2C(=O)O[C@@H](c3ccccc3)[C@@H](c3ccccc3)N2[C@@H](c2ccc(O)cc2)[C@]12C(=O)Nc1ccc(C#CCNC(N)=O)cc12"
target_of_assay = "Dickkopf-related protein 1 (Homo sapiens) (UniProt O94907)"
category = "interval 2"

[[record]]
compound = "CO[C@@H]1COC(=O)[C@@H]2CCCN2C(=O)CC=C[C@@H](C)[C@H](OC)COC(=O)[C@@H]2CCCN2C(=O)CC=C[C@H]1C"
target_of_assay = "Dickkopf-related protein 1 (Homo sapiens) (UniProt O94907)"
category = "interval 3"

[[record]]
compound = "COCCOC(=O)N1C(=O)[C@@]2(c3cc(C#CCNC(N)=O)ccc31)[C@H](C(=O)N1CCCCCCC1)[C@H]1C(=O)O[C@H](c3ccccc3)[C@H](c3ccccc3)N1[C@@H]2c1ccccc1OCCO"
target_of_assay = "Dickkopf-related protein 1 (Homo sapiens) (UniProt O94907)"
category = "interval 2"

[[record]]
compound = "C[N+](C)(C)CCCC[C@@H]1NC(=O)[C@H]2C[C@@H](C(=O)NCc3ccc(F)cc3)[C@@H](c3cccc(OCCO)c3)N2C1=O"
target_of_assay = "Dickkopf-related protein 1 (Homo sapiens) (UniProt O94907)"
category = "interval 3"

[[record]]
compound = "Cc1ccc([C@@H]2CC=C(C(=O)O)[C@H](c3ccccc3)N2S(=O)(=O)c2ccc(C)cc2)cc1"
target_of_assay = "Dickkopf-related protein 1 (Homo sapiens) (UniProt O94907)"
category = "interval 1"

